Tested on: Helicobacter pylori
ASSAY: Inhibitory effect on proliferation of Helicobacter pylori (MIC, Brucella agar)
Assay type: cell-based
MEASUREMENT PARAMETERS: H. pylori strain Clinical 82516; 37° C., 3 days
ENDPOINT NAME: MIC Clinical 82516 (µg/mL)
Give the quantity in µg/mL, number only.

Provide MIC Clinical 82516, system Helicobacter pylori, entry CC(C)=CCC[C@@](C)(O)[C@H]1CC[C@]2(C)[C@@H]1[C@H](O)C[C@@H]1[C@@]3(C)CC[C@H](O[C@@H]4O[C@H](CO)[C@@H](O)[C@H](O)[C@H]4O)C(C)(C)[C@@H]3CC[C@]12C [20(R)-ginsenoside Rh2]
100

Continuing:
For Helicobacter pylori, give the measured MIC Clinical 82516 of the entry CC(C)=CCC[C@@](C)(O)[C@H]1CC[C@]2(C)[C@@H]1[C@H](O)C[C@@H]1[C@@]3(C)CC[C@H](O)C(C)(C)[C@@H]3CC[C@]12C [20(R)-protopanaxadiol]
50

Would you please give the reported MIC Clinical 82516 of CC(C)=CCC[C@](C)(O)[C@H]1CC[C@]2(C)[C@@H]1[C@H](O)C[C@@H]1[C@@]3(C)CC[C@H](O[C@@H]4O[C@H](CO)[C@@H](O)[C@H](O)[C@H]4O[C@@H]4O[C@H](CO)[C@@H](O)[C@H](O)[C@H]4O)C(C)(C)[C@@H]3CC[C@]12C [20(R)-ginsenoside Rg3] with Helicobacter pylori?
200

Jot down MIC Clinical 82516 (Helicobacter pylori) of CC(C)=CCC[C@](C)(O)[C@H]1CC[C@]2(C)[C@@H]1[C@H](O)C[C@@H]1[C@@]3(C)CC[C@H](O)C(C)(C)[C@@H]3CC[C@]12C [20(S)-protopanaxadiol] .
50

Provide MIC Clinical 82516, system Helicobacter pylori, entry CC(C)=CCC[C@](C)(O)[C@H]1CC[C@]2(C)[C@@H]1[C@H](O)C[C@@H]1[C@@]3(C)CC[C@H](O)C(C)(C)[C@@H]3[C@@H](O)C[C@]12C
50

Quote MIC Clinical 82516 with test system Helicobacter pylori for CC(C)=CCC[C@](C)(O)[C@H]1CC[C@]2(C)[C@@H]1[C@H](O)C[C@@H]1[C@@]3(C)CC[C@H](O[C@@H]4O[C@H](CO)[C@@H](O)[C@H](O)[C@H]4O)C(C)(C)[C@@H]3CC[C@]12C [20(S)-ginsenoside Rh2]
100

Name the recorded MIC Clinical 82516 of CC(C)=CCC[C@](C)(O)[C@H]1CC[C@]2(C)[C@@H]1[C@H](O)C[C@@H]1[C@@]3(C)CC[C@H](O[C@@H]4O[C@H](CO)[C@@H](O)[C@H](O)[C@H]4O[C@@H]4O[C@H](CO)[C@@H](O)[C@H](O)[C@H]4O)C(C)(C)[C@@H]3CC[C@]12C [20(S)-ginsenoside Rg3] , assay system Helicobacter pylori.
200

---

System: Helicobacter pylori
ASSAY: Inhibitory effect on proliferation of Helicobacter pylori (MIC, Brucella agar)
Type: cell-based
MEASUREMENT PARAMETERS: H. pylori strain NCTC 11638; 37° C., 3 days
ENDPOINT NAME: MIC NCTC 11638 (µg/mL)
Report as a plain number; the unit µg/mL is understood.

Supply MIC NCTC 11638 value. Item: CC(C)=CCC[C@](C)(O)[C@H]1CC[C@]2(C)[C@@H]1[C@H](O)C[C@@H]1[C@@]3(C)CC[C@H](O[C@@H]4O[C@H](CO)[C@@H](O)[C@H](O)[C@H]4O[C@@H]4O[C@H](CO)[C@@H](O)[C@H](O)[C@H]4O)C(C)(C)[C@@H]3CC[C@]12C [20(R)-ginsenoside Rg3]
200

Write down MIC NCTC 11638 measured for item CC(C)=CCC[C@](C)(O)[C@H]1CC[C@]2(C)[C@@H]1[C@H](O)C[C@@H]1[C@@]3(C)CC[C@H](O)C(C)(C)[C@@H]3CC[C@]12C [20(S)-protopanaxadiol]
50

Next up:
Output MIC NCTC 11638 of CC(C)=CCC[C@@](C)(O)[C@H]1CC[C@]2(C)[C@@H]1[C@H](O)C[C@@H]1[C@@]3(C)CC[C@H](O)C(C)(C)[C@@H]3CC[C@]12C [20(R)-protopanaxadiol]
50

---

Test system: Helicobacter pylori
ASSAY: Inhibitory effect on proliferation of Helicobacter pylori (MIC, Brucella agar)
Type: cell-based
MEASUREMENT PARAMETERS: H. pylori strain NCTC 11638; 37° C., 3 days
ENDPOINT NAME: MIC NCTC 11638 (µg/mL)
Write the value in µg/mL as a bare number.

For orientation, consider the following solved cases.
Annotate the compound CC(C)=CCC[C@](C)(O)[C@H]1CC[C@]2(C)[C@@H]1[C@H](O)C[C@@H]1[C@@]3(C)CC[C@H](O)C(C)(C)[C@@H]3[C@@H](O)C[C@]12C [Protopanaxatriol] with its measured MIC NCTC 11638.
50

Please give measured MIC NCTC 11638 of the following entry: CC(C)=CCC[C@](C)(O)[C@H]1CC[C@]2(C)[C@@H]1[C@H](O)C[C@@H]1[C@@]3(C)CC[C@H](O[C@@H]4O[C@H](CO)[C@@H](O)[C@H](O)[C@H]4O[C@@H]4O[C@H](CO)[C@@H](O)[C@H](O)[C@H]4O)C(C)(C)[C@@H]3CC[C@]12C [20(S)-ginsenoside Rg3]
200

Please give measured MIC NCTC 11638 of the following entry: CC(C)=CCC[C@](C)(O)[C@H]1CC[C@]2(C)[C@@H]1[C@H](O)C[C@@H]1[C@@]3(C)CC[C@H](O[C@@H]4O[C@H](CO)[C@@H](O)[C@H](O)[C@H]4O)C(C)(C)[C@@H]3CC[C@]12C [20(S)-ginsenoside Rh2]
100

Here's the next entry for you.
Using the record for CC(C)=CCC[C@@](C)(O)[C@H]1CC[C@]2(C)[C@@H]1[C@H](O)C[C@@H]1[C@@]3(C)CC[C@H](O[C@@H]4O[C@H](CO)[C@@H](O)[C@H](O)[C@H]4O)C(C)(C)[C@@H]3CC[C@]12C [20(R)-ginsenoside Rh2] , state its measured MIC NCTC 11638.
100

---

Reported MIC NCTC 11638 values are given for each entry in this list.
Tested on: Helicobacter pylori
ASSAY: Inhibitory effect on proliferation of Helicobacter pylori (MIC, Brucella agar)
Format: cell-based
MEASUREMENT PARAMETERS: H. pylori strain NCTC 11638; 37° C., 3 days

Check out these entries, answers already filled in.
Note MIC NCTC 11638 for the molecule shown: CC(C)=CCC[C@](C)(O[C@@H]1O[C@H](CO[C@@H]2O[C@H](CO)[C@@H](O)[C@H](O)[C@H]2O)[C@@H](O)[C@H](O)[C@H]1O)[C@H]1CC[C@]2(C)[C@@H]1[C@H](O)C[C@@H]1[C@@]3(C)CC[C@H](O[C@@H]4O[C@H](CO)[C@@H](O)[C@H](O)[C@H]4O[C@@H]4O[C@H](CO)[C@@H](O)[C@H](O)[C@H]4O)C(C)(C)[C@@H]3CC[C@]12C [Ginsenoside Rb1]
>100 µg/mL

Indicate the recorded MIC NCTC 11638 value for this molecule: CC(C)=CCC[C@](C)(O[C@@H]1O[C@H](CO[C@@H]2OC[C@H](O)[C@H](O)[C@H]2O)[C@@H](O)[C@H](O)[C@H]1O)[C@H]1CC[C@]2(C)[C@@H]1[C@H](O)C[C@@H]1[C@@]3(C)CC[C@H](O[C@@H]4O[C@H](CO)[C@@H](O)[C@H](O)[C@H]4O[C@@H]4O[C@H](CO)[C@@H](O)[C@H](O)[C@H]4O)C(C)(C)[C@@H]3CC[C@]12C [Ginsenoside Rb2, reference compound]
>100 µg/mL

# evaluate next
Entry CC(C)=CCC[C@](C)(O)[C@H]1CC[C@]2(C)[C@@H]1[C@H](O)C[C@@H]1[C@@]3(C)CC[C@H](O)C(C)(C)[C@@H]3[C@@H](O[C@@H]3O[C@H](CO)[C@@H](O)[C@H](O)[C@H]3O)C[C@]12C [Ginsenoside Rh1] needs its MIC NCTC 11638 filled in; supply it.
>100 µg/mL

All figures here come from patent US20030190377A1.
